Numbers sourced from paper PMC12046021.

# protocolSummary: PK study in mice
# Assay type: in vivo
# statedConditions: male, ICR, mouse, plasma, po, 3 mg/kg
measurementLabel: AUC (ng·h/mL)
// return numeric value only (unit: ng·h/mL, not printed)

Task: Give recorded AUC. O=C1CCC(N2Cc3c(ccc4c3OCC43CCN(Cc4ccccc4)CC3)C2=O)C(=O)N1 (stereo not shown)
Result: 1340

----------
Each entry below lists one item and its recorded Dmax value.
# subjectOfTest: IKZF2 (Homo sapiens, UniProt Q96SW2+Q9UKS7)
# Sequence (Q9UKS7 whole entry): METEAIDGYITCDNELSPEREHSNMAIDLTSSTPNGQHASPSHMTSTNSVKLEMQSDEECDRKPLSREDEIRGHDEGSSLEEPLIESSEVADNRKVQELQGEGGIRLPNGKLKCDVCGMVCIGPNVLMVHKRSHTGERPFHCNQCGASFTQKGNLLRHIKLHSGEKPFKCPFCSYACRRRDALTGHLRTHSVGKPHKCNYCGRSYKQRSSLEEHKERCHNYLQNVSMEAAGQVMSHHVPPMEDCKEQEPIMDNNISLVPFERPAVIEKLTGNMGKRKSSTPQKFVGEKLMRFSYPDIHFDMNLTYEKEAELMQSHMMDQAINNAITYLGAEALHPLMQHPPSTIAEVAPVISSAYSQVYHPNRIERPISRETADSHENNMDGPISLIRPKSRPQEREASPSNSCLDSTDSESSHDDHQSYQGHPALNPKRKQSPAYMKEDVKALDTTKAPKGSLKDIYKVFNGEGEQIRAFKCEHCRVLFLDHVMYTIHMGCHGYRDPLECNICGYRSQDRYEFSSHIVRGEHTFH
# Sequence (Q96SW2 whole entry): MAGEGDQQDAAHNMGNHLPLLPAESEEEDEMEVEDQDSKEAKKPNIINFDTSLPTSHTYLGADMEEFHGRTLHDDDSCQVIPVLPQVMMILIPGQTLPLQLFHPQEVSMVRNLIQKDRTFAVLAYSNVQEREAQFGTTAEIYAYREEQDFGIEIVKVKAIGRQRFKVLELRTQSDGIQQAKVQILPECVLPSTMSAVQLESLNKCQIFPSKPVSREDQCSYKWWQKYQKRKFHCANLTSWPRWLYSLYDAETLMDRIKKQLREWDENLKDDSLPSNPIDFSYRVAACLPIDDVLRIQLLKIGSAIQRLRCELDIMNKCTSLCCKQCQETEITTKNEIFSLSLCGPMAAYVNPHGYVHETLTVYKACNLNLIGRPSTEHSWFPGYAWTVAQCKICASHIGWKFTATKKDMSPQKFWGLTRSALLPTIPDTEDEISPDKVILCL
# Sequence (Q16531 whole entry partner): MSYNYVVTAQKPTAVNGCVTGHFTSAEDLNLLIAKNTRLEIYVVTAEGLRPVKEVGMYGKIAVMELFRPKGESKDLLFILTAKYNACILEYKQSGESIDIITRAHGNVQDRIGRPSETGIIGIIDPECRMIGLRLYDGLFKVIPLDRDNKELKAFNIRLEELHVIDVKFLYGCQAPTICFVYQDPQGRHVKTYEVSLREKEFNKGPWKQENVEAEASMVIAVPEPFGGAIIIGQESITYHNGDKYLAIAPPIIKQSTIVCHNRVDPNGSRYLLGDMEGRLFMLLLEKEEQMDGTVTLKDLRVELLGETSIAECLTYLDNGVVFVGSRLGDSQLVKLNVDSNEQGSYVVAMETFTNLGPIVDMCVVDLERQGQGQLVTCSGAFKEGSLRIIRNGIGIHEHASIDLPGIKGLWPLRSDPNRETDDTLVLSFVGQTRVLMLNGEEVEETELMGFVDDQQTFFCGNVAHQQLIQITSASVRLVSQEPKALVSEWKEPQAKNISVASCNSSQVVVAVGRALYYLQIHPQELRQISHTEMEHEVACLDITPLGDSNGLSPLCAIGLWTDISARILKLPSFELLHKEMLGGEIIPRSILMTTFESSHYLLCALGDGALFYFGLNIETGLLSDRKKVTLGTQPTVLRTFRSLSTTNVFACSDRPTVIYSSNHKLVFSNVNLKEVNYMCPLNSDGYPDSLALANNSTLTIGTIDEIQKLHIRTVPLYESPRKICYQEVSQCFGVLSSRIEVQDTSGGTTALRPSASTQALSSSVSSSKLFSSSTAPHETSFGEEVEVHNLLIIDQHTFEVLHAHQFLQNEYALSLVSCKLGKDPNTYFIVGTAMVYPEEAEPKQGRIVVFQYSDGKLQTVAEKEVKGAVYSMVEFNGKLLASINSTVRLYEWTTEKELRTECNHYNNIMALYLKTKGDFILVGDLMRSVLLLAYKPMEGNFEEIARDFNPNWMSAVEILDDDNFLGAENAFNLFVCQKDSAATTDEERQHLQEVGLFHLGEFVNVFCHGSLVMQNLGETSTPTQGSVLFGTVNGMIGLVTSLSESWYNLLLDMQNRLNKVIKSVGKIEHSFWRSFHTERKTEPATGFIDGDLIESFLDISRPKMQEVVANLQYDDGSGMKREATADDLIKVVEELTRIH
# protocolSummary: IKZF2 HiBiT degradation assay in HEK293 cells
# Assay type: cell-based
# statedConditions: HEK293, read-out: IKZF2 degradation Dmax
Give the value, in units of %, as a plain number.

Task: # return recorded Dmax for entry O=C1CCC(N2Cc3cc(C4CCN(Cc5ccccc5)CC4)ccc3C2=O)C(=O)N1 (stereo not shown)
Result: 73

Task: Provide measured Dmax value, entry: O=C1CCC(N2Cc3c(ccc4c3OCC43CCN(Cc4ccccc4)C3)C2=O)C(=O)N1 (stereo not shown)
Result: 33

Task: Write down Dmax measured for item O=C1CCC(N2Cc3c(ccc4c3OCCC43CCN(Cc4ccccc4)CC3)C2=O)C(=O)N1 (stereo not shown)
Result: 39

Task: Tell us which Dmax value is on record for O=C1CCC(N2Cc3c(ccc4c3OCC43CCC(Oc4ccccc4)CC3)C2=O)C(=O)N1 (stereo not shown)
Result: 38

----------
# subjectOfTest: IKZF2 (Homo sapiens, UniProt Q96SW2+Q9UKS7)
# protocolSummary: IKZF2 HiBiT degradation assay in HEK293 cells
# Type: cell-based
# statedConditions: HEK293, read-out: IKZF2 degradation Dmax
measurementLabel: Dmax (%)
Provide the reading as a plain figure in %.

Look over these answered cases.
O=C1CCC(N2Cc3c(ccc4c3OCC43CCN(Cc4ccccn4)CC3)C2=O)C(=O)N1 (centres unmarked) [Compound 14]
64
O=C1CCC(N2Cc3c(ccc4c3OCC43CCCN(Cc4ccccc4)CC3)C2=O)C(=O)N1 (centres unmarked) [Compound 9]
17
O=C1CCC(N2Cc3c(ccc4c3OCC43CCN(CC4CCCCC4)CC3)C2=O)C(=O)N1 (centres unmarked) [Compound 13]
69
O=C1CCC(N2Cc3c(ccc4c3OCC43CCN(Cc4ccsc4)CC3)C2=O)C(=O)N1 (centres unmarked) [Compound 15]
84

Task: Please indicate Dmax recorded for O=C1CCC(N2Cc3c(ccc4c3OCC43CCN(Cc4ccccc4)CC3(F)F)C2=O)C(=O)N1 (centres unmarked) [Compound 12]
Result: 68
